# target: IKZF2 (Helios) (Homo sapiens, UniProt Q96SW2+Q9UKS7)
# Sequence (Q9UKS7 whole entry): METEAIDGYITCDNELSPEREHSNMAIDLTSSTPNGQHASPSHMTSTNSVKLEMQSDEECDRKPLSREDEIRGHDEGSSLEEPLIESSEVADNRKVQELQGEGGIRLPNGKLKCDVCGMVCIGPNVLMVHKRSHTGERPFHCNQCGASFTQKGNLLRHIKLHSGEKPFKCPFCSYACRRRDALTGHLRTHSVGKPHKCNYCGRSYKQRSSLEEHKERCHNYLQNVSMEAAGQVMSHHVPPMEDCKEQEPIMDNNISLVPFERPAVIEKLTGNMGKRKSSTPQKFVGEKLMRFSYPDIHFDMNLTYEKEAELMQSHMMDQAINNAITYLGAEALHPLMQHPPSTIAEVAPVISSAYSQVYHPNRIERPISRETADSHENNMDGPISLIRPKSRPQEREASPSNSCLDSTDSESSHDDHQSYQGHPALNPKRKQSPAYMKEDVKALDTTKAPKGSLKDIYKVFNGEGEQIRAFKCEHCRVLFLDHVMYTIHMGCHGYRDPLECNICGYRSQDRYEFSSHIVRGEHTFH
# Sequence (Q96SW2 whole entry): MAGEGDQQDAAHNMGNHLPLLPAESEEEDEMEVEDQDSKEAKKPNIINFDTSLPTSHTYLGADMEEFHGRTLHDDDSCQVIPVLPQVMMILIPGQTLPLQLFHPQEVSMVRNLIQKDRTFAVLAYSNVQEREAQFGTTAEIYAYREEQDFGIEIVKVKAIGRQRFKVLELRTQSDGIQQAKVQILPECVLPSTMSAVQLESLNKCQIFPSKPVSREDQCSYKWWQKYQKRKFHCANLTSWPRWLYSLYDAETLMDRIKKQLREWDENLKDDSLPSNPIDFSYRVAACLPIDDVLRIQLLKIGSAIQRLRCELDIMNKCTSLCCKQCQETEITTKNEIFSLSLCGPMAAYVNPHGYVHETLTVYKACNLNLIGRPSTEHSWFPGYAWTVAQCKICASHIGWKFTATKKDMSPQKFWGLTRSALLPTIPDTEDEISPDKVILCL
# Sequence (Q16531 whole entry partner): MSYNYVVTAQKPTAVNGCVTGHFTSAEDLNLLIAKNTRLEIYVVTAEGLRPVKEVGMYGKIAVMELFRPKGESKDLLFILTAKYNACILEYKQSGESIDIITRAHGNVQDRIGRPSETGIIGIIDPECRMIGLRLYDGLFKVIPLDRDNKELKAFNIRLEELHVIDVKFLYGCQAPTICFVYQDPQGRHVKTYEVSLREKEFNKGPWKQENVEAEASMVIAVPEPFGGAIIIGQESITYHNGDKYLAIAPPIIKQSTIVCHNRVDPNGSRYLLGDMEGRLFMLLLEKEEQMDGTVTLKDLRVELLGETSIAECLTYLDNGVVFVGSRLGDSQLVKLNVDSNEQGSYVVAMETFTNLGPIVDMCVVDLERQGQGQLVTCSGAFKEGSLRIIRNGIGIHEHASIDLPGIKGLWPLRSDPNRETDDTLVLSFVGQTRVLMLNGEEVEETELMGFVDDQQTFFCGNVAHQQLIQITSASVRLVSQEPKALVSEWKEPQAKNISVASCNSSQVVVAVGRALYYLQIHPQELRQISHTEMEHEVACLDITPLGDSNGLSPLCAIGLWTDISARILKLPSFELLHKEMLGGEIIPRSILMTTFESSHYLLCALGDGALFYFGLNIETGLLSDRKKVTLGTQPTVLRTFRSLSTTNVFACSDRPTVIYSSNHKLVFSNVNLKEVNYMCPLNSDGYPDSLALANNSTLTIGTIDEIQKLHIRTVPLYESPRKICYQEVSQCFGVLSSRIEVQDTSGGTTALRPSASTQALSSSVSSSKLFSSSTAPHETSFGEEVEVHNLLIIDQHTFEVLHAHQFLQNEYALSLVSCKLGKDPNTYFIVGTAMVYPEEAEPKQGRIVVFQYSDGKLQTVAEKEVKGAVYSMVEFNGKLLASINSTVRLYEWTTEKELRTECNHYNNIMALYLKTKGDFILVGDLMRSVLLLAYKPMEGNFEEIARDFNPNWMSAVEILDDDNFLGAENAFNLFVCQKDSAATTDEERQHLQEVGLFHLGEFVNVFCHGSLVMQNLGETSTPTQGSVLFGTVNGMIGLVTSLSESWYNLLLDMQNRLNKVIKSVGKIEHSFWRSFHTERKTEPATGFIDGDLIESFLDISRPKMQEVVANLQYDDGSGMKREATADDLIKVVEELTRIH
# method-description: Prolabel quantification of IKZF2 protein levels in 293GT cells
# Format: cell-based
# test-parameters: 24 h, Pro-label assay, 293GT cells, 10 μM, read-out: IKZF2 % protein reduction at 10 μM, 24 h
measurement-kind: IKZF2 % protein reduction at 10 µM (%)

| molecule | measurement-kind | numeric-readout |
| --- | --- | --- |
| O=C1CCC(N2Cc3cc(O[C@H]4CCC[C@@H]4NCc4ccc5[nH]ccc5c4)ccc3C2=O)C(=O)N1 (stereo partly drawn) | IKZF2 % protein reduction at 10 µM | 86 |
| O=C1CCC(N2Cc3cc(O[C@H]4CCCC[C@@H]4NCC4CCOCC4)ccc3C2=O)C(=O)N1 (stereo partly drawn) | IKZF2 % protein reduction at 10 µM | 80 |
| O=C1CCC(N2Cc3cc(O[C@H]4CCCC[C@@H]4NCc4cnc5ccnn5c4)ccc3C2=O)C(=O)N1 (stereo partly drawn) | IKZF2 % protein reduction at 10 µM | 54 |
| O=C1CCC(N2Cc3cc(O[C@H]4CCC[C@@H]4N4CC(OCc5ccccc5)C4)ccc3C2=O)C(=O)N1 (stereo partly drawn) | IKZF2 % protein reduction at 10 µM | 89 |
| CO[C@H]1CC[C@@H](CN[C@H]2CCC[C@@H]2Oc2ccc3c(c2)CN(C2CCC(=O)NC2=O)C3=O)CC1 (stereo partly drawn) | IKZF2 % protein reduction at 10 µM | 83 |
| CCN(CC)[C@H]1CCCC[C@H]1Oc1ccc2c(c1)CN(C1CCC(=O)NC1=O)C2=O (stereo partly drawn) | IKZF2 % protein reduction at 10 µM | 10 |
| COC1CCN([C@H]2CCC[C@@H]2Oc2ccc3c(c2)CN(C2CCC(=O)NC2=O)C3=O)CC1 (stereo partly drawn) | IKZF2 % protein reduction at 10 µM | 83 |
| O=C1CCC(N2Cc3cc(O[C@H]4CCCC[C@@H]4NCc4ccncc4)ccc3C2=O)C(=O)N1 (stereo partly drawn) | IKZF2 % protein reduction at 10 µM | 66 |
| CO[C@H]1CCC[C@@H]1Oc1ccc2c(c1)CN(C1CCC(=O)NC1=O)C2=O (stereo partly drawn) | IKZF2 % protein reduction at 10 µM | 0 |
| COC1(CN[C@H]2CCCC[C@@H]2Oc2ccc3c(c2)CN(C2CCC(=O)NC2=O)C3=O)CCOCC1 (stereo partly drawn) | IKZF2 % protein reduction at 10 µM | 51 |
| CN1CC[C@H]2CC[C@H](Oc3ccc4c(c3)CN(C3CCC(=O)NC3=O)C4=O)[C@H]21 (relative stereo) | IKZF2 % protein reduction at 10 µM | 40 |
| CC1(C)CCCN([C@H]2CCC[C@@H]2Oc2ccc3c(c2)CN(C2CCC(=O)NC2=O)C3=O)C1 (single isomer, unassigned) | IKZF2 % protein reduction at 10 µM | 83 |
| O=C1CCC(N2Cc3cc(OC4CCCC4N4CCC5(CCOCC5)C4)ccc3C2=O)C(=O)N1 (single isomer, unassigned) | IKZF2 % protein reduction at 10 µM | 84 |
| COC1CCC(CN[C@H]2CCC[C@@H]2Oc2ccc3c(c2)CN(C2CCC(=O)NC2=O)C3=O)CC1 (stereo partly drawn) | IKZF2 % protein reduction at 10 µM | 80 |
| O=C1CCC(N2Cc3cc(O[C@H]4CCC[C@@H]4N4CC5CCC(C4)O5)ccc3C2=O)C(=O)N1 (stereo partly drawn) | IKZF2 % protein reduction at 10 µM | 50 |
